Just for reference, the supplement of paper PMC12350171 is where these values come from.

# Test system: Haemophilus parainfluenzae
# test.protocol: growth AUC normalised to DMSO control (fraction of control); higher = less growth inhibition, active = hit call of the paper
# condition: 20 µM
Structures can show the parent of a compound that is named as a salt.
Catalogue of growth AUC normalised to DMSO control readings, one per entry.

compound	growth AUC normalised to DMSO control
COCCOC(=O)C1=C(C)NC(C)=C(C(=O)OC/C=C/c2ccccc2)C1c1cccc([N+](=O)[O-])c1 (configuration not stated) [Cilnidipine]	1
CCOc1cc(CC(=O)N[C@@H](CC(C)C)c2ccccc2N2CCCCC2)ccc1C(=O)O [Repaglinide]	1.08
CN1CCCC(n2nc(Cc3ccc(Cl)cc3)c3ccccc3c2=O)CC1 (configuration not stated) [Azelastine hydrochloride]	0.994
C[C@]12Cc3c[nH]nc3C[C@@H]1CC[C@@H]1[C@@H]2CC[C@@]2(C)[C@H]1CC[C@]2(C)O [Stanozolol]	0.949
CC(C)(C(=O)O)c1ccc(C(O)CCCN2CCC(C(O)(c3ccccc3)c3ccccc3)CC2)cc1 (configuration not stated) [Fexofenadine hydrochloride]	1.01
N[C@@H]1C[C@H]1c1ccccc1 [Tranylcypromine hydrochloride]	1.04
CC(C)[C@H](N)C(=O)OCCOCn1cnc2c(=O)nc(N)[nH]c21 [Valacyclovir hydrochloride]	0.99
CCC(C)(CN(C)C)OC(=O)c1ccccc1 (configuration not stated) [Amyleine hydrochloride]	1.01
C#C[C@]1(O)CC[C@H]2[C@@H]3CCc4cc(O)ccc4[C@H]3CC[C@@]21C [Ethinylestradiol]	1.04
O=C(Nc1ccc([N+](=O)[O-])cc1Cl)c1cc(Cl)ccc1O [Niclosamide]	0.046
O=C(O)c1cccnc1Nc1cccc(C(F)(F)F)c1 [Niflumic acid]	1.02
CN(C)C(=O)Oc1cccc([N+](C)(C)C)c1 [Neostigmine bromide]	1
COc1ccc(C(=O)NCc2ccc(OCCN(C)C)cc2)cc1OC [Itopride]	0.993
CN(C)C(=O)Oc1ccc[n+](C)c1 [Pyridostigmine iodide]	0.994
CN1CCN(C2=Nc3cc(Cl)ccc3Nc3ccccc32)CC1 [Clozapine]	1.02
COc1ccc(Cc2nccc3cc(OC)c(OC)cc23)cc1OC [Papaverine hydrochloride]	0.976
C[C@@H]1C[C@@H]([C@H](O)CC2CC(=O)NC(=O)C2)C(=O)[C@@H](C)C1 [Cycloheximide]	1.03
